Values were extracted from paper PMC5540273.

# Test system: FLT3
# CONDITION DESCRIPTION: concentration: 1 μM, replicates: in singlicate; n = 1;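 further: KINOMEscan kinase panel screen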
The entries below are paired with their reported %Inh.
I only need the number, in %, no unit after it.

The compound listed as `CSc1nn2c(=O)cc(N3CCOCC3)nc2n1Cc1cccc(C(F)(F)F)c1C` shows %Inh equal to 0

The compound listed as `C[C@@H]1CCCCN1c1cc(-c2ccc3c(N)n[nH]c3c2)nc(N)n1` shows %Inh equal to 0

---

# Tested on: FGFR1
# CONDITION DESCRIPTION: concentration: 1 μM, replicates: in singlicate; n = 1
MEASUREMENT KIND: %Inh (%)
I only need the number, in %, no unit after it.

CCn1c(-c2cccnc2O)nc2cnccc21: 0
COc1cc2ncn(-c3cc(OCC4CCCO4)c(C(N)=O)s3)c2cc1OC (stereo not drawn): 0
Cc1cc(-c2ccc3c(c2)CC[C@@H](N[C@@H](C)c2ccccc2)C3)cnc1N.Cl: 9
Cc1cccc(-c2nc(Nc3cccc(C(N)=O)c3)c3ccccc3n2)n1: 0
COc1ccc(Nc2nccc(NCCNC(=O)Nc3ccccc3F)n2)cc1: 0

The compound listed as `Clc1cc(Cl)cc(Nc2ccnc(Nc3cc(Cl)cc(Cl)c3)n2)c1` shows %Inh equal to 0

The compound listed as `O=C(Nc1ccccc1)Nc1cccc(Oc2ccc3nccn3n2)c1` shows %Inh equal to 13
